# EXPERIMENTAL_SETUP: mouse, in vivo, ip, 25 mg/kg, pH 2.3
ASSAY_ENDPOINT: T1/2 (h)
Give just the number in h; leave the unit off.

Here is how some compounds turned out for T1/2.
- C=C(C)CNC(=O)c1ccccc1Sc1ccc2c(/C=C/c3ccccn3)n[nH]c2c1 [35 (ee)]: 1.5
- Cn1cccc1C(=O)NNC(=O)c1ccccc1Sc1ccc2c(/C=C/c3ccccn3)n[nH]c2c1 [35 (e)]: 1.8
- CCOCCNC(=O)c1ccccc1Sc1ccc2c(/C=C/c3ccccn3)n[nH]c2c1 [35 (z)]: 1.8
- Cc1ccc(CNC(=O)c2ccccc2Sc2ccc3c(/C=C/c4ccccn4)n[nH]c3c2)o1 [35 (h)]: 1.5
- O=C(Nc1nccs1)c1ccccc1Sc1ccc2c(/C=C/c3ccccn3)n[nH]c2c1 [35 (y)]: 1.2

Name the recorded T1/2 for O=C(c1cccc(NC(=O)c2ccccn2)c1)c1ccc2c(/C=C/c3ccccn3)n[nH]c2c1 [41 (aa)] .
2.1

Which T1/2 reading was recorded for the compound Cc1cc(C(=O)Nc2cccc(C(=O)c3ccc4c(/C=C/c5ccccn5)n[nH]c4c3)c2)on1 [41 (m)] ?
2.3

Consider the compound shown here: O=C(Nc1cccc(C(=O)c2ccc3c(-c4nc5ccccc5[nH]4)n[nH]c3c2)c1)c1ccccc1 [42 (b)] What is its recorded T1/2?
3.0
